Data credit: patent US9802888B2

experiment_summary: In vivo pharmacokinetic analysis, serum and brain tissue levels
Set-up: species or system mouse
assay_setup: mouse, serum, intravenous; mice, single dose tail vein injection 3 mg/kg; read-out: average level in serum at 10 min post-dosing
measured_parameter: concentration at 10 min (µM)
Give bare numbers, in µM.

Query: Bench note: what concentration at 10 min did CN(CC(=O)N(Cc1ccc(C2CCCCC2)cc1)c1ccc(C(=O)NO)cc1)S(=O)(=O)c1c(F)c(F)c(F)c(F)c1F [SH5-07] show?
Result: 13.5

----------
experiment_summary: In vivo pharmacokinetic analysis, serum and brain tissue levels
Set-up: species or system mouse
assay_setup: mouse, serum, intravenous; mice, single dose tail vein injection 3 mg/kg; read-out: average level in serum at 60 min
measured_parameter: concentration at 60 min
Answer as a quantity: numeral, then unit.

Query: For the compound shown here, CN(CC(=O)N(Cc1ccc(C2CCCCC2)cc1)c1ccc(C(=O)NO)cc1)S(=O)(=O)c1c(F)c(F)c(F)c(F)c1F [SH5-07] , give the reported concentration at 60 min.
Result: 4.67 µM
